- ASSAY TEXT: Primary qHTS for Huh7 cytotoxicity: counterscreen for inhibitors of MERS-S pseudotyped particle cell entry (AID 1479147)
- CONDITIONS USED: cell viability read-out; series mostly up to 57.1 µM
Results filed as inconclusive are left out. The source made the active and inactive calls. The call rests on the fitted dose curve.
MEASURED PARAMETER: outcome

# STRUCTURE AS SMILES, MEASURED PARAMETER, OBS VALUE
data = [
    ("C=C[C@@H]1C[C@]1(NC(=O)[C@@H]1C[C@@H](Oc2ncc(OC)c3ccc(Cl)cc23)CN1C(=O)[C@@H](NC(=O)OC(C)(C)C)C(C)(C)C)C(=O)NS(=O)(=O)C1CC1", "outcome", "inactive"),
    ("CCOC(=O)Oc1c(OC)cc(C(=O)O[C@@H]2C[C@@H]3CN4CCc5c([nH]c6cc(OC)ccc56)[C@H]4C[C@@H]3[C@H](C(=O)OC)[C@H]2OC)cc1OC", "outcome", "inactive"),
    ("CON=C1C[C@]2(C[C@@H]3C[C@@H](C/C=C(\\C)C[C@@H](C)/C=C/C=C4\\CO[C@@H]5[C@H](O)C(C)=C[C@@H](C(=O)O3)[C@]45O)O2)O[C@H](/C(C)=C/C(C)C)[C@H]1C", "outcome", "inactive"),
]

Provenance of the data: PubChem BioAssay (NCATS)
